- test method notes: inhibitors of Chlamydomonas gravitaxis, primary screen, whole organism, Chlamydomonas reinhardtii, WT vs cilia-less mutant, absorbance, 96-well (AID 463189);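 note: 0% = wild type cc124 cells in DMSO and 100% = ciliumless bld1 mutant cells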
- condition description: OD600 absorbance, 2 days, at 10 µM
Active and inactive are the calls of the source.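 Rule for the calls: active = inhibition at or above 50% relative to wild type and mutant plate controls; inactive = inhibition below 50%.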
Result category, one only: active, inactive

Please review the entries below; each comes with its answer.
| compound | classification |
| --- | --- |
| COc1cc(C2C(C#N)=C(N)Oc3cc(C)n(Cc4ccccn4)c(=O)c32)cc2c1OCO2 (stereo unspecified) | inactive |
| COc1ccc(/C(O)=C2\C(=O)C(=O)N(c3cc(C)on3)C2c2cccc(OC)c2OC)cc1C (stereo unspecified) | inactive |
| Cc1[nH]c2ccc3c(ncn3CCC#N)c2c1C | inactive |
| COc1cccc(C(=O)N2CCN(S(=O)(=O)Cc3ccccc3)CC2)c1OC | inactive |
| CCNC(=O)N(C)c1nncnc1C(=O)NC | inactive |
| CN1C(=O)N(c2ccccc2)C(Nc2nncs2)C1(C)C (stereo unspecified) | inactive |

Assay outcome for CSc1nc(C)cc(OCCNS(=O)(=O)c2cc(C)ccc2C)n1 : what was it?
active

Hi team, can someone confirm the assay call for C=CCNc1nc(-c2ccc(O)c(C(N)=O)c2)cs1 ?
inactive

What did the test return for CCOc1ccccc1N1CCN(c2nc3ccccc3nc2C(C#N)C(=O)OC)CC1 (stereo unspecified) ?
inactive

Test call for this compound, please: CCCCOc1ccc(C(=O)CCN2CCCCC2)cc1
active

Record request — test call for CCC(=O)O[C@@H]1CC(=O)O[C@H](C)CC=CC=C[C@@H](O)[C@H](C)C[C@H](CC=O)[C@H](O[C@H]2O[C@H](C)[C@@H](O[C@H]3C[C@@](C)(O)[C@@H](OC(=O)CC)[C@H](C)O3)[C@H](N(C)C)[C@H]2O)[C@H]1OC
active

# lookup: test call for Clc1ccc2[nH]c3c(NCCN4CCOCC4)ncnc3c2c1
inactive

Give the logged outcome of this assay for the following compound: CC(C)C1=C2OC(N)=C(C#N)C(C#N)=C2C(C)CC1 (stereo unspecified)
inactive

Per the records of this test, what outcome belongs to N#CC1=C(SCC(=O)c2ccc(Br)cc2)NC2=C(C(=O)CCC2)C1c1ccco1 (stereo unspecified) ?
inactive

* * *

Documented z-score across a set of compounds
- test method notes: DUSP6 inhibitors restoring Erk phosphorylation by chemical complementation, primary imaging in DUSP6-transfected HeLa (AID 609)
- condition description: HeLa MKP-3 transfected, phospho-Erk imaging KS statistic; measured here: nuclear c-Myc green intensity z-score; at 10 µM; cells stimulated with TPA for 15 min

Previously resolved entries follow.
| compound | z-score |
| --- | --- |
| Cc1ccc(N2C(=O)CC(N(O)C3CC(=O)N(c4ccc(C)cc4)C3=O)C2=O)cc1 (stereo not given) | 0.402 |
| CCCOc1ccc(/C(O)=C2/C(=O)C(=O)N(CCCN3CCOCC3)C2c2ccncc2)cc1 (stereo not given) | 0.803 |
| CC(C)CC(NC(=O)OC(C)(C)C)C(=O)NCc1ccccc1 (stereo not given) | -1.58 |
| O=c1cc(NCc2ccccc2)nc2n1CCCS2 | -0.473 |
| COc1cc([C@@H]2c3cc4c(cc3[C@H](O)[C@H]3COC(=O)[C@H]23)OCO4)cc(OC)c1OC | -0.666 |

Give the reported z-score for this compound. CC(=O)c1cc(CN2CCCCC2)cc(OC(C)C)c1
-1.57

For the compound CCOC(=O)C1Cc2c([nH]c3ccccc23)C(C)N1 (stereo not given) , give its reported z-score.
-0.384

Report z-score for O=C(NCCN1CCOCC1)c1cc2n(n1)C(C(F)(F)F)CC(c1ccc(F)cc1)N2 (stereo not given)
1.46

Find the measured z-score of COc1cccc(NC(=O)CC2SC(=Nc3ccccc3)NC2=O)c1 (stereo not given) and report it.
-0.394

Fill in reported z-score for this entry: CCOC(=O)C1=C(C)N=C2SC(C)C(=O)N2C1c1ccc(OC(C)=O)c(OC)c1 (stereo not given)
-1.84

* * *

- target under test: Voltage-gated potassium channel subunit beta-2 (Rattus norvegicus)
- test method notes: KvBeta enzyme negative modulators, primary screen, biochemical, NADPH fluorescence (AID 622);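 note: slope of raw intensity against log time taken from 70 to 1610 s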
- condition description: recombinant KvBeta, 4-cyanobenzaldehyde reduction, at 10 µM, stronger effect = higher value
Where fluorescence slope equals or exceeds -0.5, the correct label is Fulfilled; where it does not, the label is Not fulfilled.

In plain terms: is recorded fluorescence slope at least -0.5 for Cc1cc(/C=c2/sc3nc4ccccc4n3c2=O)c(C)n1-c1ccccn1 ?
Fulfilled

Could you tell me if the measured fluorescence slope of COc1ccc(/C(O)=C2/C(=O)C(=O)N(CCN3CCOCC3)C2c2ccccn2)cc1OC (stereo not given) reaches -0.5 or more?
Fulfilled

Is fluorescence slope at least -0.5? Consider CCOc1ccc(S(=O)(=O)N(C)C)cc1-c1nc2c(C(C)(C)C)nn(C)c2c(=O)[nH]1
Fulfilled

Is the recorded value of fluorescence slope equal to or greater than -0.5 for this compound? Cn1c(=O)c2c3c(sc2n2c(SCC(=O)c4ccc(Cl)cc4)nnc12)COC(C)(C)C3
Not fulfilled

* * *

- test method notes: inhibitors of TNFa-induced NFkB p65 translocation, primary screen, imaging, HUVEC, MLSMR starter and 10KST1 sets (AID 438);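 note: compound added about 3h40 before a 20 min TNFalpha stimulation; signal is the nuclear over cytoplasmic p65 intensity ratio per well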
- condition description: HUVEC TNFa-induced p65 nuclear translocation; at 2 µM, stronger effect = higher value, 0% TNFa-plus-vehicle, 100% no-TNFa wells
// reported inhibition per item
Numeric only. Scale: %

Recorded results for 3 compounds are shown here.
| record smiles | u | inhibition |
| --- | --- | --- |
| CN1C(=O)c2ccc(N(C)C)cc2C1=O | % | -8.8 |
| CCCCOc1ccc(C(=O)Nn2cnnc2)cc1 | % | -0.8 |
| Cn1c(=O)c2c(ncn2CCO)n(C)c1=O | % | 3.2 |

Name the recorded inhibition of the item Oc1ccccc1-c1nc(NCc2ccco2)c2ccccc2n1 in your answer.
1.4

Query inhibition for O=C(c1coc(=O)c(Br)c1)N1CCCc2ccccc21
-0.8

For the compound COc1ccc(-c2cc3nc4n(c(=O)c3s2)CCOC4)cc1 , give its reported inhibition.
-7.1

// Input: COc1ccc(C2=Nn3c(nnc3-c3ccccn3)SC2)cc1OC . Output its inhibition only.
-10

* * *

- target under test: Dual specificity protein phosphatase 6 (Homo sapiens) (UniProt Q16828)
- Sequence (Q16828 whole entry, looked up): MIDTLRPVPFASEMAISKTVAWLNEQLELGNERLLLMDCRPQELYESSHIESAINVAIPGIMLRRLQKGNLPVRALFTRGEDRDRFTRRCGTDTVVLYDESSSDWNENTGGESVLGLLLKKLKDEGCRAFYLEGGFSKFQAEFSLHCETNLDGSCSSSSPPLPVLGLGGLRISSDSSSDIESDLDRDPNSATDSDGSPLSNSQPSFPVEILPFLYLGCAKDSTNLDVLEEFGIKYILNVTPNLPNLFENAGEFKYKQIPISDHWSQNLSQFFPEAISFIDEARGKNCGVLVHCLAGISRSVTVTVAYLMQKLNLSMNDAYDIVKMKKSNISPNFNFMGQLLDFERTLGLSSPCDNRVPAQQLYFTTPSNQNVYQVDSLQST
- test method notes: DUSP6 inhibitors restoring Erk phosphorylation by chemical complementation, primary imaging in DUSP6-transfected HeLa (AID 609);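 for inhibition: phospho-Erk level distribution per well compared with pooled transfected vehicle control wells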
- condition description: HeLa MKP-3 transfected, phospho-Erk imaging KS statistic; at 10 µM; stronger effect = higher value; cells stimulated with TPA for 15 min
metric: inhibition (%)
Kindly provide the numeric value in % only, without the unit symbol.

Please review the following examples before continuing.
| compound | u | inhibition |
| --- | --- | --- |
| COc1ccc(C(=O)/C=C/Nc2cccc(C)n2)cc1OC | % | -1.12 |
| CCN(CC)C(=O)CSC1=C(C#N)C(c2cccs2)C=C(C)N1 (configuration not stated) | % | -10.6 |
| O=C(O)CCCCCN1C(=O)CCC1=O | % | 5.26 |
| CC(=O)N=C(N)Sc1nc2ccccc2[nH]1 | % | 22.1 |
| COc1cccc(C2C(C(=O)c3cccs3)=C(O)C(=O)N2c2cc(C)on2)c1 (configuration not stated) | % | -7.01 |
| Cc1ccc2c(c1)[C@@H]1CN(C)CC[C@@H]1N2S(=O)(=O)c1ccc(F)cc1 | % | -8.27 |

Give the reported value of inhibition for this record: Cc1ccc(-c2nnc(OCCN3CCOCC3)c3ccccc23)cc1
4.37

Look up and state reported inhibition for COC(=O)CNc1nc(-c2cccnc2)nc2ccccc12
-11.9

Give inhibition for Cc1ccc(C2/C(=C(/O)c3cnn(-c4ccccc4)c3C)C(=O)C(=O)N2CCN2CCOCC2)o1 (configuration not stated)
-10.5

Answer with reported inhibition of COC(=O)C1=C(C)N=C2SC(C)C(=O)N2C1/C=C/c1ccccc1OC (configuration not stated)
-1.75

Report measured inhibition; entry is O=C1C(=O)N(CCN2CCOCC2)C(c2ccccn2)/C1=C(/O)c1ccc(F)cc1 (configuration not stated)
3.66

Look up and state reported inhibition for Cc1cc(C)c(C#N)c(SCC(=O)N2CCN(Cc3ccccc3)CC2)n1
-7.28

Give the reported inhibition for this compound. CCCCC1CC1C(=O)Nc1ccc(OC)c(OC)c1 (configuration not stated)
-8.95

Consider the compound CCOc1cccc(-c2nnc3sc(-c4cccs4)nn23)c1 . State its measured inhibition.
-2.47

Using known records, supply inhibition for NC(Cc1ccc(Oc2ccc(O)cc2)cc1)C(=O)O (configuration not stated)
3.45

Fill in inhibition for record O=C1c2ccccc2S(=O)(=O)N1CC(O)COc1ccc(Cl)cc1 (configuration not stated)
1.75

Specify measured inhibition for COCCCNc1nc2c(c(=O)n(C)c(=O)n2C)n1Cc1cccc(OC)c1 .
4.37

Item Cn1c(N2CCOCC2)nc2c1c(=O)n(Cc1ccc(Cl)c(Cl)c1)c(=O)n2C : provide inhibition
2.46

Give the measured inhibition for CCOC(=O)c1[nH]c2ccc(Br)cc2c1NC(=O)CCN1CCN(C(=O)OCC)CC1
-7.86

Fill in reported inhibition for this entry: CC1(C)CC(=O)C(C=NCCN2CCN(C(=O)C34CC5CC(CC(C5)C3)C4)CC2)=C(O)C1
3.97

Note inhibition for the compound shown: O=C(NCc1cccnc1)c1ccc(=O)oc1
4.37

Please give the documented inhibition of CCn1cc(C(=O)NCc2ccco2)c(=O)c2cc(F)c(N3CCN(C(=O)c4ccco4)CC3)cc21
19.4
